- procedure text: yeast display, Sf9 membrane polyspecificity reagent, FACS + sequencing; frameworks hold sequencing errors
measurement name: polyreactivity (PSR sort gate)

1. QVQLVESGGGLVHAGGSLRLSCAASGRTFHGYAMGWYIQAPGKERELVAAITSSGARTYYADSVKGRFTISRDNAKNTVYLQMNSLKPEDTAVYYCAVNWLRGMDWGQGTQVTVSS :: high polyreactivity
2. QVQLVESGGGLVQAGGSLRLSCAASGRTFGYYAMGWYRQAPGKERELVAAISRGGRTNYADSVKGRFTISRDNAKNTVYLQMNSLKPEDTAVYYCAKSGTIPRYTASYSLLDYWGQGTQVTVSS :: low polyreactivity
3. QVQLVESGGGLVQAGGSLRLSCAASGRIFDRYAMGWYRQAPGKERELVASITSSGGNTYYADSVKGRFTISRDNAKNTVYLQMNSLKPEDTAVYYCAKPQRVWQYGNYYYWGQGTQVTVSS :: high polyreactivity
4. QVQLVESGGGLVQAGGSLRLSCAASGGTPQNAMGWYRQAPGKDRELVAAISKRGGSTYYADSVKGRFTISRDNAKNTGYLQMNSLKPEDTAVYDCAAVSQRAQHTSEYDYWGQGTQVTVSS :: high polyreactivity
5. QVQLVESGGGLVQAGGSLRLSCGASGRTVGGNAMGWERPAPGQERELVAAITNSASTYADSVKGRFTISRDNAQNTVYLLMNSLKPEDTAGSYCAARTLPRVYRNTFGYWGQGTQVTVSS :: low polyreactivity
6. QVQLVESGGGLVQAGGSLRLSSAASGSRNAMGWSRQAPGKEREFVAAITWNGGSTYYADSVKGRFTISRDNAKNTVYLQMNSLKPEDTAVYYCNKREVFIYGTTYDYWGQGTQVTVSS :: low polyreactivity
7. QVQLVESGGGLVQAGGSLRLSCAASGSTFRGYAMGWYRQAPGKEREFVAAITYTGSSTTYADSVKGRFTISRDNAKNTVYLQMNSLKPEDTAVYYCNKYTRFASSNMYYWGQGTQVTVSS :: high polyreactivity
8. QVQLVESGGGLVQAGGSLRLICAASGRIFYRNAMGWYRQAPGKERELVAAISGATSTYYADSVKGRFTFSRDNAKNTVYLQMNSLKREDTAVYYCAAKIIWYTIRHGSAGFNYWGQGTQVTVSS :: high polyreactivity
9. QVQLVESGGGLVQAGGSLRLSCAASGSIFYWYAMGWYRQAPGKERELVAAITRSAGTTYYADSVKGRITISRDNAKNTVYLQMNSLKPEDTAVYYCAATYPRPYGSRPRYEYWGQGTQVTVSS :: high polyreactivity
10. QVQLVESGGGLVQAGGSLRLSCAASGRSFDRYAMGWYRQAPGKERELVAGITASGGSTYYADSVKGRFTISRDNAKNTVYLQMNSLKPEDTAVYYCAVVYGYRYYYWGQGTQVTVSS :: high polyreactivity
11. QVQLVESGGGLVQAGGSLRLSCAASAFTFRRYVKGWYRQAPGKERELVAAISSGGRTNYADSVKGRFTISRYNAKNTVYLQMNSLKPEDTAVYYCAADRYSSYYVLYDYWGQGTQVSVSS :: high polyreactivity
12. QVQLVESGGGLVQAGGSLRLSCAASGRIFWTNAMGWYRQAPGKERELVAAISRSGGSTYYADSVKGRFTISRDNAKNTVYLQMNSLKPEDTAVYYCAARAGRRPYDYWGQGTQVTVSS :: high polyreactivity
13. QVQLVESGGGLVQAGGSLRLSCAASGRIFGFYAMGWYRQAPGKERELVARITLSGGRTYYADSVKGRFTISRDNAKNTVYLQMNSLKPEDTAVYYCAAVSYSKRTWSMNYWGQGTQVTVSS :: high polyreactivity
14. QVQLVESGGGLVQAGGSLRLSCAASGLIFYRYVMGWYRQAPGKERELVASISTSGGRTYYADSVKGRFTISRDNAKNTVYLQMNSLKPEDTAVYYFAADFESYSRYYDGYDYWGQGTQVTVSS :: high polyreactivity
15. QVQLVESGGGLVQAGGSLRLSCAASGRIFSQYAMGWYRQAPGKERELVAAISRRTGSTYYADSVKGRFTISRDNAKNTVYLQMNSLKPEDTAVYYCAAASKPWYYYWGQGTQVTVSS :: high polyreactivity
16. QVQLVESGGGLVLAGGSLRLSCAASGRIFTSARGWYRQAPGKERELVAAISSSGGRTYYADSVKGRFTISRDNAKNTVYLQMNSLKPEDTAVYYCNTRPGSVFRAGGDYWGQGTQVTVSS :: high polyreactivity
17. QVQLVESGGGLVQAGGSLRLRCAASGSIFIGYAMGWYRQAPGKERELVAAITSGSITNYAYSVKGRFTISRDNAKNTVYLLMNSLKPEDTAVYYCNADVNFIDDDYWGQGTQVTVSS :: low polyreactivity
18. QVQLVESGGGLVQAGGSLRLSCAASGRTFRYNVMGWYRQAPGKERELVAAIRKRSGSTYYADSVKGRFTISRDNAKNTVYLQMISLKPEDTAVYYCNTEYHYGTASASDYWGQGTQVTVSS :: high polyreactivity
19. QVQLVESGGGLVQAGGSLRLSCAASGRTFGDYAMGWYRQAPGKERELVAAISGTGGSTYYADSVKGRFTISRDNAKNTVYLQMNSLKPEDTAVYYCAARLKYIRFYYWGQGTQVTVSS :: high polyreactivity
20. QVQLVESGGGLVQAGGSLRLSCAASGIIFAANAMAWYRQAPGKERELVAAISKNGGITYYADSVKGRFTISRDNAKNTVYLQMNSLIPEDTAVYDCSARWRQTRRYYYWGQGTKVTVSS :: high polyreactivity
21. QVQLVESGGGLVQAGGSLRLSCAASGRIFDFNAMGWYRQAPGKEREVVAAISSGGRTKYADSVKGRFTISRDNAKNTVYLQMNSLKPEDTAVYYCAASGSQPDDYWGQGTQVTVSS :: high polyreactivity

###

- procedure text: yeast display, Sf9 membrane polyspecificity reagent, FACS + sequencing; frameworks hold sequencing errors
measurement name: polyreactivity (PSR sort gate)

1. QVQLVESGGGLVQAGGSLRLSCAASGNTFRRYAMGWYRQAPGKERELVAAISYRGGSTYYADSVKGRFTISRDNAQNTVYLQMNSLKPEDTAVSYCNARFATSVLYDYWGQGTQVTVSS :: high polyreactivity
2. QVQLVESGGGLLKAGRSLRLSCAASGRIFGYYAMGWYRQAPGKERELVAAISTGGGRTYYADSVKGRFTISRDNAKNTVYLQMNSLKPEDTAVYYCAARLKWGWPTYDYWGQGTQVTVSS :: high polyreactivity
3. QVQHVESGGGLVQAGGSLRLSCAASGFIFAWYTMGWDRQAPGKERELVAAISRSGVRTYYADSVKGRFTISRDNAKNTVYLQMNSLKPEDTAVYYCAVDWYPTMDYWGQGTQVTLSS :: high polyreactivity
4. QVQHVESGGGLVQAGGSHRLSSAASGSTFIPNAMRWYRQAPGKERELVAAISGSGGRTYYADSVKGRFTISRDNAKNTVYLQMNSLKPEDTAVYYCAASGTSRSRKSYYWGQGTQVTVSS :: high polyreactivity
5. QVQLVESGGGLVQAGGSLRLSCAASGSTFNYNAMGWYRQAPGKERELVAAITYSGSSTYYADSVKGRFTISRDNAKNTVYLQMNSLKPEDTAVYYCAKDWYYLRRNYDYWGQGTQVTVSS :: high polyreactivity

###

- procedure text: yeast display, Sf9 membrane polyspecificity reagent, FACS + sequencing; frameworks hold sequencing errors
measurement name: polyreactivity (PSR sort gate)

1. QVQLVESGGGLVQAGGSLRLSCAASGFTFRSNAMGWYRQAPGKERELVAAISSNGGRTYYADSVKGRFTISRDNAKNTVYLQMNSLKPEDTAVYYCAARGGYSQKRHDSWGQGTQVTVSS :: high polyreactivity
2. QVQLVESGGGLVQAGGSLRLSCAASGFILSHYVMGWYRPAPGKERELVATIRNVGSTKYADSVKGRFTISRDNAKNTVYLQMNSLKPEDTAVYYCNARRWEGYYEFNYWGQGTQVTVSS :: low polyreactivity
3. QVQHVESGGGLVQAGGSLRLSCAASGSTFRFYDMGWYRQSPGKERELVATISSSGGTTYYADSVKGRFTISRDNAKNTVYLQMNSLKPEDTAVYYCNKYYGGRYRQYAYGYWGQGTQVTVSS :: high polyreactivity
4. QVQLVESGGGLVQAGGSLRLSCAASGRTFVPYAMGWYRQAPWKERELVASISSSGGSTYYADSVKGRFTISRDNAKNTVYLQMNSLKPEDTAVYYCATADRWSSSYYRSVRWYHYDYWGQGTQVTVSS :: low polyreactivity
5. QVPLVESGGGLVQAGGSLRLSCAASGRISGYYDMGWYRQAPGKERELVATITSDGGTNYADSVKGRFTISRDNAKNTVYLQMNSLKPEDTAVYYCAAYGWYTKWHFAFGYWGQGTQVTVSS :: low polyreactivity
6. QVQLVESGGRLVQAGGSLRLSCAASGFIFGFYAMGWYRQAPGKELELVAANSWSGGSTYYADSVKGRFTISRDKAKNTVFIQMNSLKPVDTAVYYCAAYFVYLDDAVTYDYWGQGTHVTVSS :: low polyreactivity
7. QVQLVESGGGLVQAGGSLRLSCAASGSIFYRYAMGWYRQAPGKERELVAAISSNGVSTYYADSVKGRFTISRDNAKNTVYLQMNSLKPEDTAVYYCARDVYASPRLYTSRYNYWGQGTQVTVSS :: low polyreactivity
8. QVQLVESGGGLVQAGGSLRLSCAASGRIFSSYVMGWYRQAPGKERELVAAIRWSGGSTYYADSVKGRFTISRDNAKNTVYLQMNSLKPEDTAVYYCAARHVLYGYYLYDYWGQGTQVTVSS :: high polyreactivity
9. QVQLVESGGGLVQAGGSLRLSCAASGSIFPGYALGWYRQAPGKERELVATIRWSSGSRTNYADSVKGRFTISRENAKKTVYLQMNSLKPEDSAVYYCAAGSRRYKYDYWGQGTQVTVSS :: high polyreactivity
10. QVQLVESGGGLVQAGGSLRLSCAASGDIFSRYMGWYRQAPGKERELVAAITRGGVSTYYADSVKGRFTISRDNAKNTVYLQMNSLKPEDTAVYYCATGRPVYYVASYDYDYWGQGTQVTVSS :: low polyreactivity
11. QVQLVESGGGLVQAGGSLRLSCAASGRIFSENAMGWYRQAPGKERELVAAITGNGGDTYYADSVKGRFTISRDNAKNTVYLQMNSLKPEDTAVYYCAAETGGLGGDYWGQGTQVTVSS :: low polyreactivity
12. QVQLVESGGGLVQAGGSLRLSCAASGSTFRKYAMGWYRQAPGKERELVAAISRGGTSTYYADSVKGRFTISRDNAKNTVYLQMNSLKPEDTAVYYCRYFRYSYGTKYDYWGQGTQVTVSS :: high polyreactivity
13. QVQHVESGGGLVQAGGSLRLSCAASGSIFGRYVMGRYRQAPGKESEFVAAISRSGGRTYYADSVKGRFTISRDNAKNTVYLQMNSLKPEDTAVYYCNAVGAAGPYDYWGQGTQVTVSS :: high polyreactivity
14. QVQLVESGGGLVQAGGSLRLSCAASGIIFDSYVMGWYRQAPGKERELVAAISFRGGSTYYADSVKGRFTISRDNAKNTVYLQMNSLKPEDTAVYYCAAEGRGYTEYYWGQGTQVTVSS :: high polyreactivity
15. QVQLVESGGGLVQAGGSLRLSCAASGSTFVVNAMVWYRQAPGKERELVAAITQDGDGTYYADSVKGRFTISRDNAKNTVYLQMNSLKPEDTAVYYCAAYPFYGPYDEFDYWGQGTQVTVSS :: low polyreactivity
16. QVQLVESGRGLVQAGGSLRLSCAASGRIFVSNVMGWYRQAPGKERELVATITIGGITYYADSVKGRFTISRDNAKNTVYLQMNSLKPEDTAVYYCAADRRRFSPYGLYIHPGFDYWGQGTQVTVSS :: low polyreactivity
17. QVQLVESGGGLVQAGGSLRLSCAASGYIFGYYTMGWYRQAPGKERELVATIRSGGSTYYADSVKGRFTISRDNAKNTVYLQMNSLKPEDTAVYYWAKRVRRISEYGYWGQGTQVTVSS :: high polyreactivity
18. QVQLVESGGGLVQAGGSLRLSCAASGFIFAKYVMGWYRQAPGKERELVAAISRSGGSTYYADSVKGRFTISRDNAKNTVYLQLNSLKPEDTAVYYCAADQTTTGGMDYWGQGTQITVSS :: high polyreactivity
19. QVQLVESGGGLVQAGGSLRLSCAASGSIFGLYAMGWYRQAPGKERELVAAITDSTGSTSYADSVKGRFTISRDNAKNTVYLQMTSLKPEDTAVYYCAAGQGRWRHGFDYWGQGTQVTVSS :: low polyreactivity
20. QVQLVESGGGLVQAGGSLRLSCAASGRIFGSYAMGWYRQAPGKERELVASIRSRGGRTYYADSVKGRFTISRDNAKNTVYLQMNSLKPEDTAVYYCAADVGVYYYSFYYWGQGTQVTVSS :: high polyreactivity
21. QVQHVESGAGLVQAGGSLRLSCAASGSIFEINAMGWYRQAPGKERELVAAITGSGGSTHYADSVKVRFTISRDNAKNTVYLQMNSLKPEDTAVYYCAAVPRYQYGYWGQGNQVTVSS :: low polyreactivity
